Each entry below carries its recorded Mean Hill.
Biological target: Mouse GLP-1 Receptor (Mus musculus, UniProt O35659)
Construct: expressed in transfected cells; host or cells: CHO cells
Sequence (O35659 22-463): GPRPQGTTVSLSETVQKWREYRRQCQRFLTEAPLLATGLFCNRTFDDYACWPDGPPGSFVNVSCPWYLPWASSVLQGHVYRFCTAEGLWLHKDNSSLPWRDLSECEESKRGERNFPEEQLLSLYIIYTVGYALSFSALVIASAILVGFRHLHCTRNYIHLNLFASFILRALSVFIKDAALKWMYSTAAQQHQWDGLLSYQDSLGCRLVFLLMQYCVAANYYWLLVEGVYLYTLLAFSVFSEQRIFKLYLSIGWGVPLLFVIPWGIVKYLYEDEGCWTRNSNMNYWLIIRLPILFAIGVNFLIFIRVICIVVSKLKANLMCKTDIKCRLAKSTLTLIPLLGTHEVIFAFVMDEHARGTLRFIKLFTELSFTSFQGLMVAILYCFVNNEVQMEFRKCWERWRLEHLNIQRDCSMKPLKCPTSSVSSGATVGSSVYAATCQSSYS
Assay: Stimulation of cAMP synthesis in CHO cells expressing mouse GLP-1 receptor
Format: cell-based
Where a SMILES comes first, the peptide text is derived from it. [ ]: non-standard residue; d: D form. The star is where a group is joined. ξ: configuration not given here. Ala(6-(2-MePh)pyridin-3-yl) = Cc1ccccc1-c1ccc(C[C@H](N)C(=O)O)cn1; Phe(4-(2-Et-4-HO-Ph)) = CCc1cc(O)ccc1-c1ccc(C[C@H](N)C(=O)O)cc1; ξαMePhe(2-F) = CC(N)(Cc1ccccc1F)C(=O)O; ξαMeP = CC1(C(=O)O)CCCN1; Moc = COC(=O)*
API doc: respond with a numeric literal and nothing else, no unit.

Some entries whose results are on file:
compound	assayed system	Mean Hill
CCc1cc(O)ccc1-c1ccc(C[C@H](NC(=O)[C@H](CC(=O)O)NC(=O)[C@H](Cc2c[nH]cn2)NC(=O)[C@@H](NC(=O)[C@](C)(Cc2ccccc2F)NC(=O)[C@@H](NC(=O)CNC(=O)[C@H](CCC(=O)O)NC(=O)[C@]2(C)CCCN2C(=O)C(Cc2c[nH]cn2)OC)[C@@H](C)O)[C@@H](C)O)C(=O)N[C@@H](Cc2ccc(-c3ccccc3C)nc2)C(N)=O)cc1 (single isomer, unassigned) [SEQ ID NO: 175]	Mouse GLP-1 Receptor (Mus musculus, UniProt O35659)	2.7
CCc1cc(O)ccc1-c1ccc(C[C@H](NC(=O)[C@H](CC(=O)O)NC(=O)[C@H](CO)NC(=O)[C@@H](NC(=O)C(C)(Cc2ccccc2F)NC(=O)[C@@H](NC(=O)CNC(=O)[C@H](CCC(=O)O)NC(=O)C2(C)CCCN2C(=O)[C@H](Cc2c[nH]cn2)NC(=O)OC)[C@@H](C)O)[C@@H](C)O)C(=O)N[C@@H](Cc2ccc(-c3ccccc3C)nc2)C(N)=O)cc1 (stereo partly drawn) [SEQ ID NO: 158] (Moc-H[ξαMeP]EGT[ξαMePhe(2-F)]TSD[Phe(4-(2-Et-4-HO-Ph))][Ala(6-(2-MePh)pyridin-3-yl)]-NH2)	Mouse GLP-1 Receptor (Mus musculus, UniProt O35659)	1.5

Please find the next compound below.
Task: # lookup: Mean Hill of CCc1cc(O)c(I)cc1-c1ccc(C[C@H](NC(=O)[C@H](CC(=O)O)NC(=O)[C@H](CO)NC(=O)[C@@H](NC(=O)C(C)(Cc2ccccc2F)NC(=O)[C@@H](NC(=O)CNC(=O)[C@H](CCC(=O)O)NC(=O)C2(C)CCCN2C(=O)[C@H](Cc2c[nH]cn2)NC(=O)OC)[C@@H](C)O)[C@@H](C)O)C(=O)N[C@@H](Cc2ccc(-c3ccccc3C)nc2)C(N)=O)cc1 (stereo partly drawn) [SEQ ID NO: 164]
Output: 2.7
